molecular target: Muscarinic acetylcholine receptor M4 (Homo sapiens) (UniProt P08173); assay: M4-linked GIRK flux change, two-sided – cell-based, HEK293 M4/GIRK, thallium flux, BTC-AM, M4 allosteric agonist project, primary screen (AID 625); conditions: at 10 µM, actives lie on both sides;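 also: thallium influx through GIRK channels coupled to M4 in HEK293 cells with BTC-AM dye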
Sequence (P08173 whole entry, looked up): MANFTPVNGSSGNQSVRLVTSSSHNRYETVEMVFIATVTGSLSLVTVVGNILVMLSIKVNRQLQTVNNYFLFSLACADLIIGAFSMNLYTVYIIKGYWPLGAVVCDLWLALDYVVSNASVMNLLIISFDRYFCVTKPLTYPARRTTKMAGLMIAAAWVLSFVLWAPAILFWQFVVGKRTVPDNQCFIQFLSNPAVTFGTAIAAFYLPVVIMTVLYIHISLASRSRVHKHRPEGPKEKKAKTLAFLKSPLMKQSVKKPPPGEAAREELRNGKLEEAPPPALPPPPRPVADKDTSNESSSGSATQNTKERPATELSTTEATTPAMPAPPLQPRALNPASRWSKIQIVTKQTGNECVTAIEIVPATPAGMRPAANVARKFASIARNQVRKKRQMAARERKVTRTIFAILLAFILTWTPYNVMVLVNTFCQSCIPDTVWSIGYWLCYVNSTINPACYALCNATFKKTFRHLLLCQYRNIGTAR
Decision: fluorescence slope beneath 0.006 gives T; fluorescence slope meeting or exceeding 0.006 gives F.

Would you kindly verify if fluorescence slope of `COc1ccc(-c2cn3cc(C)ccc3n2)cc1OC` is strictly less than 0.006?
T

Would you kindly verify if fluorescence slope of `O=C(OCc1cc2ccccc2[nH]c1=O)c1ccncc1` is strictly less than 0.006?
T

Would you kindly verify if fluorescence slope of `O=C(Cn1nc(C(F)(F)F)c2c1CCCC2)NCCN1CCOCC1` is strictly less than 0.006?
T

Would you kindly verify if fluorescence slope of `O=C(O)CCCC(=O)Nc1ccc(Br)cc1C(=O)O` is strictly less than 0.006?
T

Would you kindly verify if fluorescence slope of `Cc1ccc(C)c(Cn2c(=O)n(CCC(=O)NCc3ccco3)c(=O)c3sccc32)c1` is strictly less than 0.006?
F

Would you kindly verify if fluorescence slope of `Cn1nnnc1SCC(=O)Nc1ccccc1C(=O)NCc1ccccc1` is strictly less than 0.006?
F

Would you kindly verify if fluorescence slope of `Brc1ccc2[nH]ncc2c1` is strictly less than 0.006?
T

Would you kindly verify if fluorescence slope of O=c1[nH]c2c(s1)C(c1ccco1)C1C3CCC(C3)C1S2 (configuration not stated) is strictly less than 0.006?
T

Would you kindly verify if fluorescence slope of `CC1(C)Cc2noc(N)c2C(C)(C)N1O` is strictly less than 0.006?
F

Would you kindly verify if fluorescence slope of Cc1cccc(N2CCN(S(=O)(=O)c3ccc4c(c3)CCC(=O)N4)CC2C)c1 (configuration not stated) is strictly less than 0.006?
T

Would you kindly verify if fluorescence slope of `CCOCC(=O)Nc1nc2ccc(OC)cc2s1` is strictly less than 0.006?
T

Would you kindly verify if fluorescence slope of `O=C1NCCCc2c1no[n+]2[O-]` is strictly less than 0.006?
T

Would you kindly verify if fluorescence slope of `N#Cc1c(N)n(CCNC(=O)c2cccs2)c2nc3ccccc3nc12` is strictly less than 0.006?
T

* * *

target: Voltage-gated potassium channel subunit beta-2 (Rattus norvegicus); assay: enhancers of rat Kvbeta2 NADPH turnover – biochemical, NADPH fluorescence, primary screen (AID 623); conditions: Recombinant KvBeta, NADPH fluorescence decrease slope, 10 min; at 10 µM; stronger effect = lower value;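 also: fluorescence intensity change per second fitted from 20 to 320 s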
Measured Attribute: NADPH fluorescence slope
When you answer, write just the number.

Given `CCN(CC)c1ccc(CNc2ccc(Br)cn2)cc1` , respond with its NADPH fluorescence slope.
-0.000144

Given CN(C)CCOC(c1ccccc1)c1ccccc1 (tested in a mixture with another compound) , respond with its NADPH fluorescence slope.
-8.1e-06

Given `CCn1c(=O)cc(SCC(=O)N2CCOCC2)c2ccccc21` , respond with its NADPH fluorescence slope.
-2.4e-05

Given `CCCc1nnc(SCc2ccc(OCC)cc2)n1N` , respond with its NADPH fluorescence slope.
-1.6e-05

Given `COc1cccc(-n2c(SCC(=O)OC(C)C)nnc2-c2cccnc2)c1` , respond with its NADPH fluorescence slope.
-4.2e-05

Given CCCN1C(=O)SC(CC(=O)Nc2ccc(Br)cc2)C1=O (configuration not stated) , respond with its NADPH fluorescence slope.
2.7e-05

Given COc1cc(-c2nnc(SCC(=O)c3cc(C)n(CC4CCCO4)c3C)o2)cc(OC)c1OC (configuration not stated) , respond with its NADPH fluorescence slope.
-3.7e-06

Given `O=C1[C@@H]2C(c3ccccc3Cl)=NO[C@@H]2C(=O)N1Cc1ccccc1` , respond with its NADPH fluorescence slope.
-5.7e-05

Given O=C1CSC(c2cn(-c3ccccc3)nc2-c2cccs2)N1CC1CCCO1 (configuration not stated) , respond with its NADPH fluorescence slope.
-3e-05

Given CC1(c2cnc(Nc3ccccc3)s2)CCC(=O)O1 (configuration not stated) , respond with its NADPH fluorescence slope.
1.9e-06

Given `CCSc1ncc(C#N)c(=O)[nH]1` , respond with its NADPH fluorescence slope.
-0.000177

Given `COc1cc(-c2noc(-c3cccc(Cl)c3)n2)cc(OC)c1OC` , respond with its NADPH fluorescence slope.
2.5e-05

Given C=CCOc1cccc(C2/C(=C(\O)c3ccc(F)cc3)C(=O)C(=O)N2CCN(C)C)c1 (configuration not stated) , respond with its NADPH fluorescence slope.
-0.000177

Given CCNC(=O)CC1C(=O)N(c2ccccc2)C(=O)N1Cc1ccc(OC)cc1 (configuration not stated) , respond with its NADPH fluorescence slope.
2e-05

Given Cc1nc2cc(NC(=O)N3CC4(C)CC3CC(C)(C)C4)ccc2n1C (configuration not stated) , respond with its NADPH fluorescence slope.
-8.2e-05

Given CCOC(=O)c1ccc(NC(=O)NC(C)C2CCCO2)cc1 (configuration not stated) , respond with its NADPH fluorescence slope.
2e-05

Given `O=C(Cn1ncc2ccccc21)N1CCN(c2cccc(C(F)(F)F)c2)CC1` , respond with its NADPH fluorescence slope.
-2.5e-05

* * *

assay: endothelial E-selectin expression blockers – imaging, HUVEC, immunofluorescence, MLSMR starter and 10KST1 sets, primary screen (AID 487); details: HUVEC TNFalpha-induced E-selectin immunofluorescence imaging, at 2 µM; measured here: cell number, toxicity;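 also: 100% = median nuclei count of all wells on the same plate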
Kindly supply the reported nuclei count values for the records listed here.
Unit % implied. Number only.

Given `Cc1ccc(C(=O)CSc2nnc(-c3cccnc3)n2N)cc1` , respond with its nuclei count.
95.7

Given CCC(=O)NC1(C(F)(F)F)C(=O)NC(C)=C1C#N (stereo not drawn) , respond with its nuclei count.
105

Given `CC(C)(C)c1cc(C(=O)O)nn1-c1ccccc1` , respond with its nuclei count.
130

* * *

test: TLR3 IRF3 reporter activation blockers – cell-based, poly I:C stimulus, luciferase, 10K MLSCN set, primary screen (AID 602277); settings: HEK293-TLR3 RL24 IRF3 luciferase reporter, at 10 µM, stronger effect = higher value
The source made the active and inactive calls.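 The calls were made as follows: active = inhibition of the reporter signal at or above 50%; inactive = inhibition below 50%.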
Measured Attribute: inhibition

Given `CC1(C)O[C@@H]2C[C@H]3[C@@H]4C[C@H](F)C5=CC(=O)C=C[C@]5(C)[C@@]4(F)[C@@H](O)C[C@]3(C)[C@]2(C(=O)CO)O1` , respond with its inhibition.
56.9% (active)

Given `COc1ccccc1-c1c(C)nn2c(N3CCC4(CC3)OCCO4)cc(C)nc12` , respond with its inhibition.
12.2% (inactive)

Given `CCN(CC)CCNC(=O)C1CCN(S(=O)(=O)N2CCCCC2)CC1` , respond with its inhibition.
15.8% (inactive)

Given `Cc1sc2nc(SCC(=O)NCc3ccco3)n(CCc3ccccc3)c(=O)c2c1C` , respond with its inhibition.
0.6% (inactive)

Given `COc1ccc(OC)c(NC(=O)CSc2nc3ccccc3c(=O)n2CCNC(C)=O)c1` , respond with its inhibition.
18.6% (inactive)

Given Cn1c(=O)c2c(ncn2CC(O)CNc2ccc(Cl)cc2)n(C)c1=O (stereo unspecified) , respond with its inhibition.
2.85% (inactive)

Given `COc1ccccc1N1CCN(C(=O)c2oc3cc(C)c(C)cc3c2C)CC1` , respond with its inhibition.
15% (inactive)

Given `O=C1NCCCc2c1no[n+]2[O-]` , respond with its inhibition.
6.4% (inactive)

Given O=C(O)C1C2C=CC(O2)C1C(=O)NCc1ccc(Cl)cc1 (stereo unspecified) , respond with its inhibition.
5.33% (inactive)

Given COC(=O)c1cc(NC(=O)C2CC=CCC2C(=O)O)cc(C(=O)OC)c1 (stereo unspecified) , respond with its inhibition.
7.94% (inactive)

Given `O=c1c2ccccc2c(C=Nc2ccc(Cl)cn2)c(O)n1-c1cc(Cl)ccc1N1CCOCC1` , respond with its inhibition.
-5.13% (inactive)

Given `CCOc1ccccc1N1CCN(c2nc(N)c(C#N)c(CC#N)c2C#N)CC1` , respond with its inhibition.
17.9% (inactive)

Given `COc1ccc(NC(=O)CCNC(=O)Cn2ccc3ccccc3c2=O)c(OC)c1` , respond with its inhibition.
15.6% (inactive)

Given `CCOC(=O)c1ccc(NC(=O)N2CCN(CCc3ccccc3)CC2)cc1` , respond with its inhibition.
-14.9% (inactive)

Given CCOC(=O)N1CCN(C(=O)C(NS(=O)(=O)c2cccc3nsnc23)c2ccccc2)CC1 (stereo unspecified) , respond with its inhibition.
9.73% (inactive)

Given CC1CN(S(=O)(=O)c2cccc(C(=O)OCc3cc(=O)oc4cc(O)ccc34)c2)CC(C)O1 (stereo unspecified) , respond with its inhibition.
23.3% (inactive)

* * *

test: reduction of polyQ htt aggregates in cells – imaging, exon1htt(103Q)mCFP cells, high-content imaging, primary screen (AID 483); conditions: exon1htt(103Q)mCFP cell line, aggregate imaging, at 2 µM; stronger effect = higher value;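 also: compound exposure lasted 3 days before fixation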
Kindly supply the reported inhibition of aggregation values for the records listed here.
Unit % implied. Number only.

Given `O=C(O)CCCNS(=O)(=O)c1ccc(NCc2ccccc2)c(C(=O)O)c1` , respond with its inhibition of aggregation.
2.8

Given CCN(CC)S(=O)(=O)N1CCC(C(=O)NCC2COc3ccccc3O2)CC1 (centres undefined) , respond with its inhibition of aggregation.
-12.4

Given `COc1cccc(NC(=O)CN2CCN(c3ccccc3F)CC2)c1` , respond with its inhibition of aggregation.
19.4

Given `CCNc1oc(COc2ccccc2F)nc1C#N` , respond with its inhibition of aggregation.
-13.4
